assay method text: in vivo
particulars: male, Wistar Han, rat, whole blood, intramuscular; day 42; single IM Example 11A 20 mg/kg equivalent of EFdA; read-out: Mean concentration of Example 11A
value type: concentration at 42 day (ng/mL)
# output: bare number, implied unit ng/mL

input: Which value of concentration at 42 day has been reported for C#C[C@]1(COP(=O)(N[C@@H](Cc2ccccc2)C(=O)OCCCCCCCCCCCC)OCC(=O)OCCCCCCCCCCCC)O[C@@H](n2cnc3c(N)nc(F)nc32)C[C@@H]1O (single isomer, unassigned) [Example 11A] in the records?
output: 1.03

* * *

assay method text: EFdA Rat PK Studies (subcutaneous and intramuscular groups), plasma concentration by LC-MS/MS
Assay type: in vivo, Wistar Han rats
particulars: male, Wistar Han, rat, plasma, sc, 20 mg/kg, 7 hr; SC 20 mg/kg; plasma; read-out: Assayed Concentrations of EFdA, individual rats
Source text: Protocol for EFdA Rat PK Studies Conducted at Charles River Laboratories, NY. A total of seven naïve male Wistar Han rats, 200-250 g, were received from Charles River Laboratories, Kingston, N.Y. All animals were received from the supplier equipped with a surgically-implanted jugular vein catheter (JVC) for blood sample collection. Following an acclimation period, the animals were assigned to the study based on acceptable health as determined by a staff veterinarian and catheter patency. […]
value type: concentration at 7 h (ng/mL)
# output: bare number, implied unit ng/mL

input: Which value of concentration at 7 h has been reported for `C#C[C@]1(CO)O[C@@H](n2cnc3c(N)nc(F)nc32)C[C@@H]1O` in the records?
output: 320
